Biological target: human ANO6 (Homo sapiens)
Construct: expressed in transfected cells
Sequence (Q4KMQ2 1-931 isoform Q4KMQ2-2): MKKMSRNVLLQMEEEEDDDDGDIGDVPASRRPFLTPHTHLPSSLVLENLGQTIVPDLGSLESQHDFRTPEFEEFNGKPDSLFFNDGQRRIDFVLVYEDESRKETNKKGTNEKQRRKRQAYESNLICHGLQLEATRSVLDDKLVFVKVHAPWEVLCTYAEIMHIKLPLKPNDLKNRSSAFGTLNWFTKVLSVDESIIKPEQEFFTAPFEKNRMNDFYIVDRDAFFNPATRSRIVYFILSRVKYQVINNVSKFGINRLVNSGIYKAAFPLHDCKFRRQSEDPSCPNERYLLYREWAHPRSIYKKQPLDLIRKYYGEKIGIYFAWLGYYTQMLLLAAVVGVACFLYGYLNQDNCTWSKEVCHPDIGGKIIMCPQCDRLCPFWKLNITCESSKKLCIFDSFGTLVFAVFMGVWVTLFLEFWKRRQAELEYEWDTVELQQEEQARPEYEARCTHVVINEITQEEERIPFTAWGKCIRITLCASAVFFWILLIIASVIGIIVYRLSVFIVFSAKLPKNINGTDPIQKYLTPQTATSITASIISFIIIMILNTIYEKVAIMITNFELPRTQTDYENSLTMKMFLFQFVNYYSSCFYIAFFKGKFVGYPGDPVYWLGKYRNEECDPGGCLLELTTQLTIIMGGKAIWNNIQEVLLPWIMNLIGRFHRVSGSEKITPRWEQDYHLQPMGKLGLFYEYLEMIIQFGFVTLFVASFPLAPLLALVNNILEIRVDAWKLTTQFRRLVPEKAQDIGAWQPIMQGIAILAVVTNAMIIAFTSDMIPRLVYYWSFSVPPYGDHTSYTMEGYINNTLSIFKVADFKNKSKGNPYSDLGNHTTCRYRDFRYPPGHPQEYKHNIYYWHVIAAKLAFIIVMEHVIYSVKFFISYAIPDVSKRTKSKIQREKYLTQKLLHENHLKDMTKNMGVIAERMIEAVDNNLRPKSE
Assay: YFP quenching assay (ANO6 ion channel activity)
Format: cell-based
Conditions: test compound 1 μM, 10 μM ionomycin, read-out: Inhibition Level 1 μM

| compound | inhibition at 1 µM |
| --- | --- |
| Cc1ccc(CNC(=O)c2cccc(Nc3ccc(-c4ccccc4)nc3)c2)o1 [Compound 6] | ≥ 60% |
| Cc1ccc(CNC(=O)c2cccc(Nc3ccc(C4CCN(C(=O)OC(C)(C)C)CC4)nn3)c2)o1 [Compound 69] | < 30% |
| O=C(NCCCc1ccccc1)c1cccc(Nc2ccc(-c3ccc(F)cc3)nn2)c1 [Compound A6] | ≥ 60% |
| O=C(NCc1ccoc1)c1cccc(Nc2ccc(-c3ccccc3)nn2)c1 [Compound 45] | ≥ 60% |
| O=C(NC1CCCC1)c1cccc(Nc2ccc(-c3ccc(F)cc3)nn2)c1 [Compound A14] | ≥ 60% |
| CCOCCCNC(=O)c1cccc(Nc2ccc(-c3ccccc3)nn2)c1 [Compound A67] | ≥ 60% |
| Cc1ccc(CNC(=O)c2cccc(Nc3ccc(-c4ccc(Cl)cc4)nn3)c2)o1 [Compound 75] | 30 to 60% |
| CCCCCCCNC(=O)c1cccc(Nc2ccc(-c3ccccc3)nn2)c1 [Compound A38] | ≥ 60% |
| O=C(NCc1ccsc1)c1cccc(Nc2ccc(-c3ccccc3)nn2)c1 [Compound 44] | ≥ 60% |
| O=C(NC1CCCCCC1)c1cccc(Nc2ccc(-c3ccccc3)nn2)c1 [Compound A39] | 30 to 60% |
| Cc1ccc(CNC(=O)c2cccc(Nc3ncc(-c4ccc5c(c4)OCO5)cn3)c2)o1 [Compound 103] | < 30% |
| Cc1cccc(-c2cnc(Nc3cccc(C(=O)NCc4ccc(C)o4)c3)nc2)c1 [Compound A18] | 30 to 60% |
